- System: SW-620
- protocol_text: Cytotoxicity against human SW620 cells assessed as decrease in cell survival after 72 hrs by MTT assay
- Type: cell-based
- experimental_conditions: SW-620, 72 h
pIC50: −log10 of the molar value.
measured_metric: pIC50

O=c1cc(-c2ccccc2)[nH]c2nc(SCc3nc4ccccc4[nH]3)nn12 : 4.07
